ASSAY_SYSTEM: Tyrosine-protein kinase JAK2 (Homo sapiens, UniProt O60674)
Sequence (O60674 whole entry): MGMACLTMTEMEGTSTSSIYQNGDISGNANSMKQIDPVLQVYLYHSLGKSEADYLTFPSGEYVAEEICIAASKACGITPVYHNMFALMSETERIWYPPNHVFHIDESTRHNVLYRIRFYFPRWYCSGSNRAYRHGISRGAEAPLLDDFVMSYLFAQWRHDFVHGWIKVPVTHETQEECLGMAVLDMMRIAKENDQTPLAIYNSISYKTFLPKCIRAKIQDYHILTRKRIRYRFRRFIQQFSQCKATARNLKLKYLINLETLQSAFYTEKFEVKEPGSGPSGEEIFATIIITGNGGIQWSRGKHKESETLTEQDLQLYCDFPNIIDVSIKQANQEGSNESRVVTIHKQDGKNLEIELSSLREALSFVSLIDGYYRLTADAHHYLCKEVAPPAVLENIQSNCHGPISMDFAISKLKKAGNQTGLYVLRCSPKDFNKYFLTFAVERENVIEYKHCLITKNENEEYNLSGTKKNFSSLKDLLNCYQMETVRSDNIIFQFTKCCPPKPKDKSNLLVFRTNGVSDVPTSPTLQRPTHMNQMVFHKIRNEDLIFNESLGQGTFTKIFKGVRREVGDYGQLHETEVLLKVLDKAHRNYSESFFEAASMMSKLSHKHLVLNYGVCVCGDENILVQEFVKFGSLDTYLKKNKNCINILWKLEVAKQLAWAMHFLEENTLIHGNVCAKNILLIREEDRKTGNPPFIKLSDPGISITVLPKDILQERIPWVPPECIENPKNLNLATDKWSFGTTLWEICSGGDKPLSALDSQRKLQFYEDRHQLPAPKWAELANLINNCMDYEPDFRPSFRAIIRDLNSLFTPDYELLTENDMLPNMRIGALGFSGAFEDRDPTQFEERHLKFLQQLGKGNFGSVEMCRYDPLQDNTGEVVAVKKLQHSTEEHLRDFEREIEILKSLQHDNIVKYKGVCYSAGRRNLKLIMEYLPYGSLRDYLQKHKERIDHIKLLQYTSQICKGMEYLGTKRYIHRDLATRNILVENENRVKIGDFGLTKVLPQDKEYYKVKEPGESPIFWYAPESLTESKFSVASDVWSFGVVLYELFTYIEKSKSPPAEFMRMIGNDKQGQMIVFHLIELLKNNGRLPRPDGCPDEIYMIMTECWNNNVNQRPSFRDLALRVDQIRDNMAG
ASSAY_NAME: Tyrosine Kinase Assay: The assays were performed in V-bottom 384-well plates. […] The reaction was initiated by the combination of JAK2 with substrates and test compounds. The reaction was incubated at room temperature for 60 min. and terminated by adding 45 ul of 35 mM EDTA to each sample. The reaction mixture was analyzed on the Caliper LABCHIP 3000 by electrophoretic separation of the fluorescent substrate and phosphorylated product.
pIC50: −log10 of the molar value.
REPORTED_ENDPOINT: pIC50

I: COc1cccc(-c2cc(C(N)=O)c3[nH]c4cc(NC(=O)OC(C)(C)C)ccc4c3c2)c1
II: COc1ccc(-c2cc(C(N)=O)c3[nH]c4cc(C(=O)N5CCCC(C)(O)C5)ccc4c3c2)cc1F (configuration not stated)
Parameter metric = pIC50. Return the lower-valued option from I and II . Mark your selection by writing its label.
I
